B1: TPR 5TU (parent)
chain: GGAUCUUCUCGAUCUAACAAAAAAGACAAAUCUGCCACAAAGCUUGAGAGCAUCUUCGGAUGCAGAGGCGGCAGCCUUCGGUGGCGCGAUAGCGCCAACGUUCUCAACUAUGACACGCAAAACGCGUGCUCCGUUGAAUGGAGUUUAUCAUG

Variants of: B1
Test: polymerase ribozyme fitness, log enrichment relative to wild type (log ratio); higher = more active; in vitro selection for triplet polymerase activity
Fewer inactive variants are shown than the library holds.
Binary classification by polymerase ribozyme fitness (log ratio), with -3 as an inclusive lower bound for true (1); all other cases are false (0).

- mutation_descriptor: "A16C A24C G50C C85U G143U"
  discrete_label: "false (0)"
- mutation_descriptor: "C75U A98G G112C A122U"
  discrete_label: "false (0)"
- mutation_descriptor: "G50U C57A C76A A122U C131G"
  discrete_label: "false (0)"
- mutation_descriptor: "G58U G92A"
  discrete_label: "true (1)"
- mutation_descriptor: "A52C U56A C96A A110G"
  discrete_label: "false (0)"

Would you say C35U G92A C96G A98C shows polymerase ribozyme fitness (log ratio) at minimum -3?
false (0)

Would you say G59U G68A C96U shows polymerase ribozyme fitness (log ratio) at minimum -3?
false (0)

Would you say U53G U55A shows polymerase ribozyme fitness (log ratio) at minimum -3?
true (1)

Would you say A49C U109G shows polymerase ribozyme fitness (log ratio) at minimum -3?
false (0)

Would you say A28C A39C C54G U61A C99U shows polymerase ribozyme fitness (log ratio) at minimum -3?
false (0)

Would you say C5A C93G shows polymerase ribozyme fitness (log ratio) at minimum -3?
true (1)

Would you say A40U C43U G70A U78G C87A A147G shows polymerase ribozyme fitness (log ratio) at minimum -3?
false (0)
